Experiment: In vivo localization (biodistribution) in athymic female nude mice bearing intraperitoneal MCF-7 tumors
Parameters: species or system athymic female NCR-Nu Mice
Conditions: mouse, in vivo, ip, Blood, 10-12 hours, tail vein, intraperitoneal MCF-7, mean, n = 5; read-out: Percent Injected Dose/Gram, blood
Method: In vivo localization of 11β-ethyl-17α-(Z)-[^125 I](iodovinyl)estra-3,17β-diol (5) and a control compound 16α-[^125 I]iodovinyl-3,17β-estradiol (commercially available from DuPont New England Nuclear, MA) was determined in athymic female NCR-Nu Mice (purchased from Simonsen Laboratories, Gilroy, Calif.) bearing subcutaneous MCF-7(ER+) breast tumor xenografts. […]

{"columns": ["CPD_SMILES", "SCALE_UNIT", "tissue uptake"],
 "data": [
  ["CC[C@H]1C[C@@]2(C)[C@@H](CC[C@@]2(O)/C=C\\[125I])[C@@H]2CCc3cc(O)ccc3[C@@H]12", "%ID/g", 0.61]
]}

Every entry's value here was drawn from patent US5427766A.
